Hey, just so you know, these numbers are from paper PMC5450539.

system: 3T3 ccl-92 mouse fibroblast; assay: Crystal violet cytotoxicity assay, 3T3 ccl-92; type: cell-based; conditions: 24 h incubation; max test concentration 50 µg/mL; > = <50% reduction in viability at max
Reported Endpoint: Cytotoxicity 3T3 ccl-92 (test concentration which causes toxicity)

In [3]: df
Out[3]:
              cpd_smiles               assayed_target      result
0  O=C1Nc2c(Br)cccc2C1=O  3T3 ccl-92 mouse fibroblast  >221.21 µM

###

test system: TNFα production; test: TNF-alpha inhibition assay (ELISA) in LPS-stimulated RAW264.7 macrophages; format: cell-based, mouse; details: Mus musculus, RAW264.7, predicted, above the maximum test concentration; read-out: predicted TNFα IC50
Reported Endpoint: IC50 (µM)

          cpd_smiles  reported_endpoint  unit_label  numeric_result
0  O=C1Nc2ccccc2C1=O               IC50          µM             717

###

tested on: TNFα production; assay: TNF-alpha inhibition assay (ELISA) in LPS-stimulated RAW264.7 macrophages; assay type: cell-based, mouse; details: LPS-stimulated RAW264.7; max test concentration 50 µg/mL; listed as 6-bromoindole (11); read-out: TNFα IC50
pIC50: −log10 of the molar value.
Reported Endpoint: pIC50

           cpd_smiles  reported_endpoint  numeric_result
0  Brc1ccc2cc[nH]c2c1              pIC50            3.82

###

assay: Crystal violet cytotoxicity assay, RAW264.7; details: mouse
Reported Endpoint: viability at 24 h, 50 µg/mL (%)

In [3]: df
Out[3]:
                            cpd_smiles  numeric_result
0                O=C1Nc2ccc(Br)cc2C1=O              55
1                   Brc1ccc2cc[nH]c2c1            66.4
2               CSC1=Nc2cc(Br)ccc2C1=O            84.1
3  O=C1Nc2cc(Br)ccc2C1=C1Nc2ccccc2C1=O            56.2
4                O=C1Nc2c(Br)cccc2C1=O            81.9

###

assay: Crystal violet cytotoxicity assay, 3T3 ccl-92; type: cell-based, mouse; details: mouse, 3T3 ccl-92 fibroblast cells; 3T3, 50 µg/mL, 24 h incubation, compared to DMSO-treated wells
Reported Endpoint: viability at 24 h, 50 µg/mL

In [3]: df
Out[3]:
              cpd_smiles  result
0  O=C1Nc2c(Br)cccc2C1=O   80.9%
